test system: P388; experiment: Cytotoxicity against mouse P388 cells; type: functional; conditions: read-out: ED50 (the source's name)
Outcome Measure: pEC50
Give bare numbers, as −log10 of the molar value.

Compound: CC(C)C(=O)CCC1(C)C=Cc2c(c3ccccc3n(C)c2=O)O1 (configuration not stated)
Outcome Measure: pEC50
Measured: 5.01

Now for another entry.
Exercise: Give pEC50 for the following compound: CC(C)=CCCC1(C)C=Cc2c(c3ccccc3n(C)c2=O)O1 (configuration not stated)
Solution: 5.28

* * *

assay: Cytotoxicity against human BC1 cells; format: functional; conditions: read-out: ED50 (the source's name)
Outcome Measure: pEC50
Numbers only, as −log10 of the molar value.

Exercise: Give pEC50 for the following compound: CC(C)=CCCC1(C)C=Cc2c(c3ccccc3n(C)c2=O)O1 (configuration not stated)
Solution: 4.54

* * *

Assignment: determine reported EC50 for the given compounds.
test: Cytotoxicity against human multidrug-resistant KBV1 cells in absence of vinblastine; assay type: functional; conditions: KB-V1, read-out: ED50 (the source's name)
Record the result as a number with its unit.

Compound: CC(C)=CCCC1(C)C=Cc2c(c3ccccc3n(C)c2=O)O1 (configuration not stated)
Outcome Measure: EC50
Measured: 21.3 µM

Now for another entry.
Exercise: Give EC50 for the following compound: CC(C)C(=O)CCC1(C)C=Cc2c(c3ccccc3n(C)c2=O)O1 (configuration not stated)
Solution: 24.3 µM

* * *

Assignment: determine reported pEC50 for the given molecules.
tested on: KB; assay: Cytotoxicity against human KB cells; assay type: functional; details: read-out: ED50 (the source's name)
Numbers only, as −log10 of the molar value.

Molecule: CC(C)C(=O)CCC1(C)C=Cc2c(c3ccccc3n(C)c2=O)O1 (configuration not stated)
pEC50: 4.33

Now for another entry.
Exercise: Give pEC50 for the following molecule: CC(C)=CCCC1(C)C=Cc2c(c3ccccc3n(C)c2=O)O1 (configuration not stated)
Solution: 4.82

* * *

assay: Cytotoxicity against human multidrug-resistant KBV1 cells in presence of vinblastine; assay type: functional; settings: KB-V1, read-out: ED50 (the source's name)
Assignment: determine reported EC50 for the given compounds.
Numbers only, in µM.

Compound: CC(C)C(=O)CCC1(C)C=Cc2c(c3ccccc3n(C)c2=O)O1 (configuration not stated)
EC50, µM: 4

Now for another entry.
Exercise: Give EC50 for the following compound: CC(C)=CCCC1(C)C=Cc2c(c3ccccc3n(C)c2=O)O1 (configuration not stated)
Solution: 6.5
